The measurements presented in this section are drawn from ChEMBL document CHEMBL5214999.

Assay: Intrinsic clearance in rat hepatocytes after 60 mins by LC-MS/MS analysis
Format: ADME, cell-based, Hepatocyte
Settings: 1 h
log10(CLH) values, listed per item
A value of 2 here means CLH of 100 in mL/min/g, since values are log10.

Reference set, count: 4
### Prompt Can you share its log10(CLH)? I mean this compound: "CCS(=O)(=O)c1ccc2c(c1)C(c1cnn(C)c1)=CN(C)C(=O)[C@@H]2C"
### Response 0.39

### Prompt Can you share its log10(CLH)? I mean this compound: "COc1cc2c(cc1OC)[C@@H](C)C(=O)N(C)C=C2"
### Response 0.80

### Prompt Can you share its log10(CLH)? I mean this compound: "CCS(=O)(=O)c1ccc2c(c1)C(C)=CN(C)C(=O)[C@@H]2C"
### Response 0.07

### Prompt Can you share its log10(CLH)? I mean this compound: "CCOc1ccc2c(c1)C(c1cnn(C)c1)=CN(C)C(=O)[C@@H]2C"
### Response 1.86

Next:
### Prompt Can you share its log10(CLH)? I mean this compound: "C[C@H]1C(=O)N(C)C=Cc2cc(CN3CCOCC3)ccc21"
### Response 1.38

====

solubility kinetic values, listed per item
Experiment: Solubility of the compound in saline by CLND method
Format: physicochemical

### Prompt Can you share its solubility kinetic? I mean this compound: "CCS(=O)(=O)c1ccc2c(c1)C(C)=CN(C)C(=O)[C@@H]2C"
### Response ≥ 131 µg/mL

====

Assay: Clearance in Beagle dog blood at 1.5 mg/kg, po or 0.5 mg/kg, iv measured upto 24 hrs by LC-MS/MS analysis
Assay type: ADME, organism-based, Canis lupus familiaris
Conditions: whole blood
Assay Readout: clearance (mL/min/kg)
# unit: mL/min/kg | format: bare number

### Prompt Can you share its clearance? I mean this compound: "C[C@H]1C(=O)N(C)C=C(c2cnn(C)c2)c2cc([C@@H](O)CO)ccc21"
### Response 28

====

Experiment: Clearance in Wistar Han rat blood at 3.1 mg/kg, po or 1 mg/kg, iv measured upto 24 hrs by LC-MS/MS analysis
Assay type: ADME, organism-based
Details: whole blood
clearance values, listed per item
Report the figure along with its unit, number first.

### Prompt Can you share its clearance? I mean this compound: "C[C@H]1C(=O)N(C)C=C(c2cnn(C)c2)c2cc([C@H](O)CO)ccc21"
### Response 19 mL/min/kg

### Prompt Can you share its clearance? I mean this compound: "C[C@H]1C(=O)N(C)C=C(c2cn[nH]c2)c2cc([C@H](O)CO)ccc21"
### Response 43 mL/min/kg

====

Assay: Oral bioavailability in Wistar Han rat at 3.1 mg/kg measured upto 24 hrs by LC-MS/MS analysis
Type: ADME, organism-based
Details: in vivo
Assay Readout: bioavailability
Report the figure along with its unit, number first.

### Prompt Can you share its bioavailability? I mean this compound: "C[C@H]1C(=O)N(C)C=C(c2cnn(C)c2)c2cc([C@H](O)CO)ccc21"
### Response 66%

Could you now consider this next compound?
### Prompt Can you share its bioavailability? I mean this compound: "C[C@H]1C(=O)N(C)C=C(c2cn[nH]c2)c2cc([C@H](O)CO)ccc21"
### Response 19%

====

Assay: Oral bioavailability in Beagle dog at 1.5 mg/kg measured upto 24 hrs by LC-MS/MS analysis
Type: ADME, organism-based, Canis lupus familiaris
Conditions: in vivo
bioavailability values, listed per item
# unit: % | format: bare number

### Prompt Can you share its bioavailability? I mean this compound: "C[C@H]1C(=O)N(C)C=C(c2cnn(C)c2)c2cc([C@H](O)CO)ccc21"
### Response 39

Could you now consider this next compound?
### Prompt Can you share its bioavailability? I mean this compound: "C[C@H]1C(=O)N(C)C=C(c2cnn(C)c2)c2cc([C@@H](O)CO)ccc21"
### Response 79
